assay.explanation: Plasma pharmacokinetics of Halofuginone hydrobromide in Beagle dogs (Example C)
conditions.used: male, Beagle, dog, in vivo, sc, 0.03 mg/kg, Mean Conc. (plasma)
Experimental: Blood samples were collected from the jugular, cephalic, or saphenous veins into tubes containing EDTA at the following time points: 0, 0.5, 1, 2, 4, 8, 12, 24, and 48 h postdose. Blood samples were kept on wet ice until processing. […] Statistical analysis of PK parameters for dogs treated with both enteric and oral solutions were calculated using Excel® spreadsheets. […] Paired differences for each dog were determined by subtracting the summary PK value as follows: […]
Where a name gives a salt, the structure may show the parent alone.
measurement.label: concentration at 0.5 h (ng/mL)
Give bare numbers, in ng/mL.

INPUT: Name the recorded concentration at 0.5 h for O=C(C[C@@H]1NCCC[C@H]1O)Cn1cnc2cc(Br)c(Cl)cc2c1=O [Halofuginone hydrobromide] .
OUTPUT: 3.62
